# Test system: NCI-H460 lung
# Run description: NCI-60 one-dose screen, 48 h
# Measurement parameters: 10 µM unless noted
This is part of a sample that, as a whole, favours compounds with a hit. Of some 83,000 tested, about 20% had one in any assay. Activity calls are given as the source filed them. The calls were made as follows: active = growth percent below 10; inactive = the rest.
Parameter call: string, one of True = active, False = inactive

Query: recorded result category for "C=C(C)[C@@H]1CC[C@]2(COCCCNCCCN)CC[C@]3(C)[C@H](CC[C@@H]4[C@@]5(C)CC[C@H](OCCCN)C(C)(C)[C@@H]5CC[C@]43C)[C@@H]12" in this test True

Query: recorded result category for "CC(C)n1nc(-c2ccc3oc(N)nc3c2)c2c(N)ncnc21" in this test True

Query: recorded result category for "Cc1ccc(Nc2oc(-c3ccccc3)nc2[P+](c2ccccc2)(c2ccccc2)c2ccccc2)cc1" in this test True

Query: recorded result category for CCOC(=O)CC1CSC(N/N=C(/C)c2cccc(C(F)(F)F)c2)=N1 (stereo not drawn) in this test False

Query: recorded result category for "COc1cccc(CNc2nnc(C)c(C)n2)c1O" in this test False

Query: recorded result category for "O=C(Nc1cccc2c1C(=O)c1cccc(NC(=O)c3ccc(C(=O)Nc4cccc5c4C(=O)c4cccc(NC(=O)c6ccccc6)c4C5=O)cc3)c1C2=O)c1ccccc1" in this test False

Query: recorded result category for "CCc1ccc(Cc2cnc(NC(=O)c3cc(C)oc3C)s2)cc1" in this test False

Query: recorded result category for "CCOC(=O)c1c2c(n3ccc(NC(=O)CCN4CCCC4)cc13)C(=O)c1ncccc1C2=O" in this test True
